Assay: qHTS assay to identify small molecule phospholipidosis (PLD) inducers (AID 1259344); also: % is scaled to controls: 0 for no effect and ±100 for the full control effect
Conditions: HepG2 phospholipidosis, LipidTOX Red imaging, 24 h; series mostly up to 38.3 µM
Records with an inconclusive call do not appear. Activity calls are given as the source filed them. Calls follow the shape of the dose curve; as a rule, active = well fitted activation curve with a large enough effect; inconclusive = small, poorly fitted or top-dose-only effect; inactive = flat fitted curve, though single readings scatter.

{"compound": "CCCCO", "PLD induction": "inactive"}
{"compound": "C=CCOc1ccccc1OCC(O)CNC(C)C (stereo not given)", "PLD induction": "inactive"}
{"compound": "NCC(=O)O", "PLD induction": "inactive"}
{"compound": "CN1C[C@H]2c3ccccc3Oc3ccc(Cl)cc3[C@@H]2C1", "PLD induction": "1.39% [at 7.66 µM] (inactive)"}
{"compound": "Cc1ncc(CO)c(C=O)c1O", "PLD induction": "inactive"}
{"compound": "Clc1ccc(Cn2c(CN3CCCC3)nc3ccccc32)cc1", "PLD induction": "inactive"}
{"compound": "CN1CCN(C(c2ccccc2)c2ccccc2)CC1", "PLD induction": "inactive"}
{"compound": "O=C(NCCO[N+](=O)[O-])c1cccnc1", "PLD induction": "inactive"}
{"compound": "COc1ccc(C(=O)N2CCN(CC(=O)N3CCOCC3)CC2)cc1", "PLD induction": "inactive"}
{"compound": "CCN(CC)CCOC(=O)C(Cc1cccc2ccccc12)CC1CCCO1 (stereo not given)", "PLD induction": "inactive"}
{"compound": "O=S(c1cc(Cl)cc(Cl)c1O)c1cc(Cl)cc(Cl)c1O", "PLD induction": "inactive"}
{"compound": "C[C@H]1C[C@H]2[C@@H]3CCC4=CC(=O)C=C[C@]4(C)[C@@]3(Cl)[C@@H](O)C[C@]2(C)[C@@]1(O)C(=O)CO", "PLD induction": "inactive"}
{"compound": "CC[N+](C)(CC)CCOC(=O)C(O)(c1ccccc1)C1CCCCC1 (stereo not given)", "PLD induction": "inactive"}
{"compound": "OC(C#CCN1CCCC1)(c1ccccc1)c1ccccc1", "PLD induction": "inactive"}
{"compound": "CC(=O)OC[C@H]1O[C@@H](n2ncc(=O)[nH]c2=O)[C@H](OC(C)=O)[C@@H]1OC(C)=O", "PLD induction": "inactive"}
{"compound": "CN1CCC(N(Cc2cccs2)c2ccccc2)CC1", "PLD induction": "-4.03% [at 7.66 µM] (inactive)"}
{"compound": "C#CCN(C)CCCOc1ccc(Cl)cc1Cl", "PLD induction": "inactive"}
{"compound": "CN(Cc1ccc(C(C)(C)C)cc1)Cc1cccc2ccccc12", "PLD induction": "-0.504% [at 7.66 µM] (inactive)"}
{"compound": "Nc1ncn([C@H]2C[C@H](O)[C@@H](CO)O2)c(=O)n1", "PLD induction": "inactive"}
{"compound": "Nc1ccc(S(=O)(=O)Nc2ccccc2)cc1", "PLD induction": "inactive"}
{"compound": "Cc1cccc(C)c1OCC(=O)N[C@@H](Cc1ccccc1)[C@@H](O)C[C@H](Cc1ccccc1)NC(=O)[C@H](C(C)C)N1CCCNC1=O", "PLD induction": "inactive"}
{"compound": "C[N+]1(CC2COC(c3ccccc3)(C3CCCCC3)O2)CCCCC1 (stereo not given)", "PLD induction": "inactive"}
{"compound": "COc1ccc(-c2nc3ccc(C4=NNC(=O)CC4C)cc3[nH]2)cc1 (stereo not given)", "PLD induction": "inactive"}
{"compound": "N=c1ccn2c(n1)O[C@H]1[C@H](O)[C@@H](CO)O[C@H]12", "PLD induction": "inactive"}
{"compound": "O=C(O)c1ccc(-n2nc(-c3ccccc3O)nc2-c2ccccc2O)cc1", "PLD induction": "-4.07% [at 1.53 µM] (inactive)"}
{"compound": "CC(CSC(=O)c1ccccc1)C(=O)N1C[C@@H](Sc2ccccc2)C[C@H]1C(=O)O (stereo not given in full)", "PLD induction": "inactive"}
{"compound": "Cc1[nH]c(C)c(Cl)c(=O)c1Cl", "PLD induction": "inactive"}
{"compound": "C[C@@H](c1ncncc1F)C(O)(Cn1cncn1)c1ccc(F)cc1F (stereo not given in full)", "PLD induction": "inactive"}
{"compound": "C[N+]1(C)CCC(OC(=O)C(O)(c2ccccc2)C2CCCC2)C1 (stereo not given)", "PLD induction": "inactive"}
{"compound": "O=C1c2ccccc2S(=O)(=O)N1CCCCN1CCN(c2ncccn2)CC1", "PLD induction": "inactive"}
{"compound": "CNC(=O)CN(CCN(CCN(CC(=O)[O-])CC(=O)NC)CC(=O)[O-])CC(=O)[O-].O.[Gd+3]", "PLD induction": "inactive"}
{"compound": "CCN(CC)CCOC(=O)C(c1ccccc1)C1CCCCC1 (stereo not given)", "PLD induction": "inactive"}
{"compound": "CC(=O)[O][Al][O]C(C)=O", "PLD induction": "inactive"}
{"compound": "CCCCNc1ccc(C(=O)OCCOCCOCCOCCOCCOCCOCCOCCOCCOC)cc1", "PLD induction": "inactive"}
{"compound": "CC[N+]1(CC)CCC(=C(c2ccccc2)c2ccccc2)C1C (stereo not given)", "PLD induction": "inactive"}
{"compound": "O=C(CS)Nc1ccccc1", "PLD induction": "0.942% [at 7.66 µM] (inactive)"}
{"compound": "CO[C@@H]1[C@H](OC(=O)/C=C/C=C/C=C/C=C/C(=O)O)CC[C@]2(CO2)[C@H]1[C@@]1(C)O[C@@H]1CC=C(C)C", "PLD induction": "inactive"}
{"compound": "CCOCC(O)COc1ccc(NC(=O)CC[S+](C)C)cc1 (stereo not given)", "PLD induction": "inactive"}
{"compound": "COc1cc2c(cc1OC)C(C(C(=O)N(CCc1ccc(OC)c(OC)c1OC)CCc1ccc(OC)c(OC)c1OC)c1ccccc1)=NCC2 (stereo not given)", "PLD induction": "inactive"}
{"compound": "CN(C)CCN(Cc1ccccc1)c1ccccn1", "PLD induction": "inactive"}
{"compound": "NC(N)=NCCC[C@H](N)C(=O)O", "PLD induction": "-2.12% [at 7.66 µM] (inactive)"}
{"compound": "C#C[C@]1(O)CC[C@H]2[C@@H]3CCc4cc(OC5CCCC5)ccc4[C@H]3CC[C@@]21C", "PLD induction": "inactive"}
{"compound": "NCc1ccccc1Sc1ccccc1CO", "PLD induction": "inactive"}
{"compound": "CCCCC(=O)OCC(=O)[C@H]1[C@H](C)C[C@H]2[C@@H]3C[C@H](F)C4=CC(=O)C=C[C@]4(C)[C@@]3(F)[C@@H](O)C[C@@]21C", "PLD induction": "-1.62% [at 7.66 µM] (inactive)"}
{"compound": "COc1ccnc(CS(=O)c2nc3ccc(OC(F)F)cc3[nH]2)c1OC (stereo not given)", "PLD induction": "inactive"}
